src = PubChem BioAssay AID1159580

Reported normalized growth by item:
Test: chemical genetic growth profiling, strain panel (AID 1159580);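 also: tested at 20 µM; growth read once vehicle control cultures reached saturation at 30 °C; 1 = growth at the plate median or of vehicle wells; lower values mean less growth of the strain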
Settings: S. cerevisiae deletion strains, growth OD, locus YNL006W, strain LST8, stronger effect = lower value
Among all 5,500 compounds or so, about 2,000 (36%) were called active. Another 18% or so got no clear call; they are omitted. Some of the results follow.
measured_quantity: normalized growth

Cc1nc(-c2ccc(S(=O)(=O)Nc3ccc(Br)cc3Cl)s2)cs1	0.937 (inactive)
Cc1ccc(NC(=O)c2ccccc2N=Cc2cc(Cl)cc(Cl)c2O)c(N=Cc2cc(Cl)cc(Cl)c2O)c1	0.931 (inactive)
O=c1c2ccccc2[nH]c(=S)n1-c1cccc(C(F)(F)F)c1	0.965 (inactive)
FC(F)(F)c1cccc(-n2c(CSCc3cccc4ccccc34)n[nH]c2=S)c1	0.984 (inactive)
O=[N+]([O-])c1ccc(Sc2ssc(=S)c2-c2ccccc2)nc1	0.942 (inactive)
O=C(Nc1ccc(OC(F)(F)F)cc1)OC1CN(C(c2ccccc2)c2ccccc2)C1	0.994 (inactive)
CC(=O)ON=C1c2cc([N+](=O)[O-])ccc2-c2ccc([N+](=O)[O-])cc21	0.953 (inactive)
O=[N+]([O-])c1ccc2oc(C(O)c3ccc(-c4ccccc4)cc3)cc2c1 (stereo not given)	0.987 (inactive)
CCc1ccn2cc(Nc3ccccc3Cl)nc2c1	0.997 (inactive)
OC(CN1CCN(c2nc3ccc(Cl)cc3s2)CC1)Cn1ccc2ccccc21 (stereo not given)	0.985 (inactive)
